- TARGET SYSTEM: T1, human CD33 (human, UniProt P20138 18-259, limits assumed)
- T1 construct: Human CD33 immobilized on the BLI sensor tip or the BIAcore C1 chip; also called Siglec-3
- T1 sequence (P20138 18-259 limits assumed): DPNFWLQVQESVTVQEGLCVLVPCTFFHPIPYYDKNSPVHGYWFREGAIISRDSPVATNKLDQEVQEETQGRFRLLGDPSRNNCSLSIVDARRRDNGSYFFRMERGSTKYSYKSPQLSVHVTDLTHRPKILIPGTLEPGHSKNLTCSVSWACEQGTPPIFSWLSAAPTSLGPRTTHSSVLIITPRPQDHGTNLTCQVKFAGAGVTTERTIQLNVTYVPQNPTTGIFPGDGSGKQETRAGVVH
- ASSAY TEXT: BLI (ForteBio), Fab; column looks row-shifted against KD
What koff was measured for each of the following?
// units = s⁻¹; emit number, no label

q: I'd like to know its koff. The binder in question is AB-63.15 (antibody, V domains shown) VH: QVQLVQSGAEVKKPGASVKVSCKASGYTFTDYNYHWVRQAPGQGLEWIGFIYPSNGITGYAQKFQGRVTMTVDTSTSTVYMELSSLRSEDTAVYYCARSDVDYFDLWGQGTLVTVSS VL: DIVLTQSPDSLAVSLGERATINCRASQDVSTSTYSYMHWYQQKPGQPPKLLIKYASNVESGVPDRFSGSGSGTDFTLTISSLQAEDVAVYYCQHSWEIPLTFGQGTKLEIE
a: 0.0002

q: I'd like to know its koff. The binder in question is AB-63.5 (antibody, V domains shown) VH: QVQLVQSGAEVKKPGASVKVSCKASGYTFTDYNNHWVRQAPGQGLEWIGFIYPSNGITGYAQKFQGRVTMTVDTSTSTVYMELSSLRSEDTAVYYCARSDVDYFDYWGQGTLVTVSS VL: DIVLTQSPDSLAVSLGERATINCRASQSVSTSTYSYMHWYQQKPGQPPKLLIKYASNLESGVPDRFSGSGSGTDFTLTISSLQAEDVAVYYCQHSWEIPLTFGQGTKLEIK
a: 0.00155

q: I'd like to know its koff. The binder in question is AB-63.8 (antibody, V domains shown) VH: QVQLVQSGAEVKKPGSSVKVSCKASGVTFTDYNYHWVRQAPGQGLEWIGFIYPSNGITGYAQKFQDRVTMTVDTSTSTVYMELSSLRSEDTAVYYCARSTVDYFDYWGQGTLVTVSS VL: DIVLTQSPDSLAVSLGERATINCRASQDVSTSTYSYMHWYQQKPGQPPKLLIKYASNLESGVPDRFSGSGSGTDFTLTISSLQAEDVAVYYCQHSWEIPLTFGQGTKLEIK
a: 0.000524
